- assaySystem: MHCII (I-A^b) of murine bone marrow-derived dendritic cells (Mus musculus, UniProt P14434+P14483)
- Construct: immunoprecipitation of mature peptide-MHCII complexes with monoclonal Y3P antibody; endogenous in cells; host or cells: primary BMDCs from C57/BL6 (WT) mice, exposed to live L. monocytogenes EGDe
- Sequence (P14434 24-256): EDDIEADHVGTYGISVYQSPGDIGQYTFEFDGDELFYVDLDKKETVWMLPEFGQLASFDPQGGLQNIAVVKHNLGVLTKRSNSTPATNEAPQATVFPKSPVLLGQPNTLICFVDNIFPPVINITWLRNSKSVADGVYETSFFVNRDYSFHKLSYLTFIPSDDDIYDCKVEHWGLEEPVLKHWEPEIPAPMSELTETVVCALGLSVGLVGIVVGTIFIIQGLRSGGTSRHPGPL
- Sequence (P14483 28-265): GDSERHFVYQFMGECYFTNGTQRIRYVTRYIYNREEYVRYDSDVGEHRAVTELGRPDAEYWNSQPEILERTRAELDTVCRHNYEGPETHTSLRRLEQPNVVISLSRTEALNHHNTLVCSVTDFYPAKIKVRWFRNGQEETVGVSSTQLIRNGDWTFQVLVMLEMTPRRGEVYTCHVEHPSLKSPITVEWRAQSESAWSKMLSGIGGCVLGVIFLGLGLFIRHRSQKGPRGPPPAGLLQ
- methodNotes: MHCII peptidomics of BMDCs exposed to live Listeria (iTRAQ LC-MS/MS of MHCII-associated peptides)
- Assay type: cell-based
- conditionDescription: MHCII-bound peptide abundance, BMDCs, 6 hr versus 10 min after Listeria exposure
Rule: logFC (Log2 Fold Change Listeria 6 hr versus 10 min) below -0.4 gives class 1. Equal to or above -0.4 gives class 0.

# substance, labelValue
measured = [
    ("15018 (DGLKAGEHFFAAGKDWPDAIYANGDEVAAGVMYH; Listeria sp) [compound 15018]", "class 1"),
    ("15020 (GLLMAKKYKMNLTIVIVN; Listeria sp) [compound 15020]", "class 1"),
    ("15019 (EILLQKPNGERLTSFITL; Listeria sp) [compound 15019]", "class 0"),
    ("15025 (KTASGIVLPDSAKEKPQSGKIVAVGSGRVLD; Listeria sp) [compound 15025]", "class 1"),
    ("15017 (EVVYHNMKQDLE; Listeria sp) [compound 15017]", "class 0"),
    ("15023 (VMASDYTRGLSIRAIELVFENL; Listeria sp) [compound 15023]", "class 0"),
    ("14982 (VERWNEKYAQAYPNVS; Listeria sp) [compound 14982]", "class 0"),
    ("15024 (YMEKHSVSRLVGAPP; Listeria sp) [compound 15024]", "class 1"),
]

----------
- assaySystem: MHCII (I-A^b) of murine bone marrow-derived dendritic cells (Mus musculus, UniProt P14434+P14483)
- Construct: immunoprecipitation of mature peptide-MHCII complexes with monoclonal Y3P antibody; endogenous in cells; host or cells: primary BMDCs from C57/BL6 (WT) mice, exposed to live L. monocytogenes EGDe
- Sequence (P14434 24-256): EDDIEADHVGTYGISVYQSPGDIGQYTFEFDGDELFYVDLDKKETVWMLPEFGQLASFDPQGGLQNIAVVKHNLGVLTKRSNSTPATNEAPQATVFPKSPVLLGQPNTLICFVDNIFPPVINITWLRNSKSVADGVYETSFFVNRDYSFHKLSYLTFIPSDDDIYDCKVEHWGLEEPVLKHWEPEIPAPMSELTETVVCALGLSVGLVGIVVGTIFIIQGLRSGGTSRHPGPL
- Sequence (P14483 28-265): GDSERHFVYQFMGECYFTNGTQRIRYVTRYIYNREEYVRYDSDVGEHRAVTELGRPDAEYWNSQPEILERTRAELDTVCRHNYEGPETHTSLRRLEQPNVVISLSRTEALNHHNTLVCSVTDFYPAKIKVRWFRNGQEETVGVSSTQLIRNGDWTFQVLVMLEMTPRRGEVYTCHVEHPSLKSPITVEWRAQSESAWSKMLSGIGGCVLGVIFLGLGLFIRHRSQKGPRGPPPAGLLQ
- methodNotes: MHCII peptidomics of BMDCs exposed to live Listeria (iTRAQ LC-MS/MS of MHCII-associated peptides)
- Format: cell-based
- conditionDescription: Listeria peptide found by MHCII peptidomics that matches the BOTA prediction
attributeMeasured: Peptidomics Hit

# substance, observed
data = [
    ("15030 (FRYVFDTAKATAASSYPGS; Listeria sp) [compound 15030]", "......ADFRYVFDTAKATAASSYPG......."),
    ("15028 (ERWNEKYAQAYPNVSAKID; Listeria sp) [compound 15028]", "..........[…].........."),
    ("15029 (ETQHYYGLPVADSAIDRGPL; Listeria sp) [compound 15029]", "...APGQETQHYYGLPVADSAIDR........."),
]
